Kindly supply the reported self-cleavage values for the records listed here.
B1: LINE1-full (parent)
chain: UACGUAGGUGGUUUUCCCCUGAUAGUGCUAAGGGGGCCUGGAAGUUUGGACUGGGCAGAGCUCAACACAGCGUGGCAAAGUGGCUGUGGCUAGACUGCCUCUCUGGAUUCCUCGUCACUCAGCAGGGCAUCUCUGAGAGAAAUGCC

Variants of: B1
Test: self-cleavage, relative activity (ratio to wild type); higher = more cleavage; in vitro, sequencing; the parent is a self-cleaving ribozyme

UACGUAGGUGGUUUUCCCCUGAUAGAGCUAAGGGGGCAUGGAAGUUUGGACUGGGCAGAGCUCAACACAGCGUGGCAAAGUGGCUGUGGCUAGACUGCCUCUCUGGAUUCCUCGUCACUCAGCAGGGCAUCUCUGAGAGAAAUGCC	0.73

# return self-cleavage for each item in the list
1. UACGUAGGUGGUUUUCCCCUGAUUGUGCUAAGGGGGCCUGGAAGUUUGGACUGGGCUGAGCUCAACACAGCGUGGCAAAGUGGCUGUGGCUAGACUGCCUCUCUGGAUUCCUCGUCACUCAGCAGGGCAUCUCUGAGAGAAAUGCC
2. UACGUAGGUGGUUUUCCCCUGAUAGCGCUAAGGGGGCCUGGAAGUUUGGACUGGGCAGAGCUCAACACAGCGUGGCAAAGUGGCUGUGGCUAGACUGCCUCUCUGGAUUCCUCGUCACUCAGCAGGGCAUCUCUGAGAGAAACGCC
3. UACGUAGGUGGUUUUCCCCUGAUAGUGCUAUGGGGGCCUGGAAGUUUGGACUGGGCAGAGCUCGACACAGCGUGGCAAAGUGGCUGUGGCUAGACUGCCUCUCUGGAUUCCUCGUCACUCAGCAGGGCAUCUCUGAGAGAAAUGCC
4. UACGUAGGUGGUUUUCCCCUGAUAGUGCUAAGGGUGCCUGGAAGUUUGGACUGGGCAGAGCUCAACACAGCGUGGCAAAGUGGCUGUGGCUAGACUGCCUCUCUGGAUUCCUCGUCACUCAGCAGGGCAUCUCUGAGGGAAAUGCC
5. UACGUAGGUGGUUUUCCCCUGAUAGUGCUAAGGGGGUCUGGAAGUUUGGACUGGGCAGAGCUCAACGCAGCGUGGCAAAGUGGCUGUGGCUAGACUGCCUCUCUGGAUUCCUCGUCACUCAGCAGGGCAUCUCUGAGAGAAAUGCC
6. UUCGUAGGUGGUUUUCCCCUGAUAGUGCUAAGGGGGCCUGGAAGUUUGGACUGGGCAGAGCUCAACACAGCGUGGCAAAGUGGCUGUGGCUAGACUGCCUCUCUGGAUUCCUCGUCACUCAGCAGGGCAUCUCUGAGAGAGAUGCC
7. UACGUAGGUGGGUUUCCCCUGAUAGUGCUAAGGGGGCCUGGAAGUUUGGACUGGGCAGAGCUCAACACAGCGUGGCAAAGUGGCUGUGGCUGGACUGCCUCUCUGGAUUCCUCGUCACUCAGCAGGGCAUCUCUGAGAGAAAUGCC

// result
1. 0.16
2. 1.07
3. 0.2
4. 1.47
5. 0.22
6. 1
7. 0.21

# return self-cleavage for each item in the list
1. UACGUAGGUGGUUUUCCCCUGAUAGUGCUAAGGGGGCCUGGAAGUUCGGACUGGGCAGAGCUCAACACAGCGUGGCAAAGUGGCUGUGGCUAGACUGCCUCUCUGGAUUCCUCGUCACUCAGCAGGGCAUCUCAGAGAGAAAUGCC
2. UACGUAGGUGGUUUUCCUCUGAUAGUGCUAAGGGGGCCUGGAAGUUUGGACUGGGCAGAGCCCAACACAGCGUGGCAAAGUGGCUGUGGCUAGACUGCCUCUCUGGAUUCCUCGUCACUCAGCAGGGCAUCUCUGAGAGAAAUGCC
3. UACGUAGGUGGUUUUCCCCCGAUAGUGCUAAGGGGGCCUAGAAGUUUGGACUGGGCAGAGCUCAACACAGCGUGGCAAAGUGGCUGUGGCUAGACUGCCUCUCUGGAUUCCUCGUCACUCAGCAGGGCAUCUCUGAGAGAAAUGCC
4. UACGUAGGUGGUUUUCCCCUGAUAAUGCUUAGGGGGCCUGGAAGUUUGGACUGGGCAGAGCUCAACACAGCGUGGCAAAGUGGCUGUGGCUAGACUGCCUCUCUGGAUUCCUCGUCACUCAGCAGGGCAUCUCUGAGAGAAAUGCC

// result
[1.34, 0.08, 1.1, 0.7]

# return self-cleavage for each item in the list
1. UACGUAGGUGGUUUUCCCCUGAUAGUGCUAAGGGGGCCUGGAAGUUAGGACAGGGCAGAGCUCAACACAGCGUGGCAAAGUGGCUGUGGCUAGACUGCCUCUCUGGAUUCCUCGUCACUCAGCAGGGCAUCUCUGAGAGAAAUGCC
2. UACGUAGGUGGUUUUCCCCUGAUAGAGCUAAGGGGGCCUGGAAGUUUGGACUGGGCAGAGCUCAACACAGCGUGGCAAAGUGGCUGUGGCUAGACUGCCUCUCUGGAUUCCUCGUUACUCAGCAGGGCAUCUCUGAGAGAAAUGCC
3. UUCGUAGGUGGUUUUCCCCUGAUAGUGCUAAGGGGGCCUGGAAGUUUGGACUGGGCAGAGCUCAACGCAGCGUGGCAAAGUGGCUGUGGCUAGACUGCCUCUCUGGAUUCCUCGUCACUCAGCAGGGCAUCUCUGAGAGAAAUGCC
4. UACGUAGGUGGUUUUCCCCUGAUAGUGCUAAGGGGGCCUGGAGGUUUGGACUGGGCAGAGCUCAACACAGCGUGGCAAAGUGGCUGUGGCUAGACUGCCUCUCUGGAUUCCUCGUCACUCAGCAGGGCAUCUCUGAGAGAAAUACC
5. UACGUAGGUGGUUUUCCCCUGAUAGCGCUAAGGGGGCCUGGACGUUUGGACUGGGCAGAGCUCAACACAGCGUGGCAAAGUGGCUGUGGCUAGACUGCCUCUCUGGAUUCCUCGUCACUCAGCAGGGCAUCUCUGAGAGAAAUGCC
6. UACGUAGGUGGUUUUCCCCUGAUAGUGCUAAGGGGGCCUGGAAGUUUGGACUGGGCAGAGCUCAACUCAGCGUGGCAAAGUGGCUGUGGCUAGACUGCCUCUCUGGAUUCCUCGUCACCCAGCAGGGCAUCUCUGAGAGAAAUGCC

// result
1: 1.84; 2: 0.99; 3: 0.61; 4: 1.39; 5: 1.63; 6: 0.19
